- PARTICULARS: human
READOUT_LABEL: Hepatotoxicity (choleostasis)
Answer with a bare number; do not write a unit.

O=C1NC(=S)NC(=O)C1C(=O)Nc1ccccc1 [MERBARONE]	0
NS(=O)(=O)c1cc2c(cc1Cl)N=CNS2(=O)=O [CHLOROTHIAZIDE]	5
CC(=O)OCC1=C(C(=O)O)N2C(=O)[C@@H](NC(=O)Cc3cccs3)[C@H]2SC1 [CEPHALOTHIN]	1
CCC1NC(=O)c2cc(S(N)(=O)=O)c(Cl)cc2N1 (stereo not drawn) [QUINETHAZONE]	1
CO/N=C(\C(=O)N[C@@H]1C(=O)N2C(C(=O)O)=C(CSc3nc(=O)c(=O)[nH]n3C)CS[C@H]12)c1csc(N)n1 [CEFTRIAXONE]	2
CC1(C)S[C@@H]2[C@H](NC(=O)[C@H](C(=O)O)c3ccsc3)C(=O)N2[C@H]1C(=O)O.O=C(O)[C@H]1/C(=C/CO)O[C@@H]2CC(=O)N21	2

Which Hepatotoxicity (choleostasis) value is on record for Cc1nc2ccc(CN(C)c3ccc(C(=O)N[C@@H](CCC(=O)O)C(=O)O)s3)cc2c(=O)[nH]1 [RALTITREXED] ?
1

// next record Nc1nc(/C(=C/CC(=O)O)C(=O)N[C@@H]2C(=O)N3C(C(=O)O)=CCS[C@H]23)cs1 [CEFTIBUTEN]
0

---

- PARTICULARS: human
Attribute: Hepatotoxicity (severe hepatitis)

Solved cases below.
CCOC(=O)C1=C(C)NC(C)=C(C(=O)OC)C1c1cccc([N+](=O)[O-])c1 (stereo not drawn)	0
CN(C)C(=O)OC1N=C(c2ccccc2)c2cc(Cl)ccc2N(C)C1=O (stereo not drawn)	0
O=C(O)CCCCCCNC1c2ccccc2CCc2ccccc21	0
Cc1ccccc1N1C(=O)c2cc(S(N)(=O)=O)c(Cl)cc2NC1C (stereo not drawn)	1

Which Hepatotoxicity (severe hepatitis) value is on record for CN(C)CC/C=C1\c2ccccc2CSc2ccccc21 [DOTHIEPIN] ?
0

// next record NCC[C@H](O)C(=O)N[C@@H]1C[C@H](N)[C@@H](O[C@H]2O[C@H](CN)CC[C@H]2N)[C@H](O)[C@H]1O[C@H]1O[C@H](CO)[C@@H](O)[C@H](N)[C@H]1O
0

// next record C[C@H]1COc2c(C3(N)CC3)c(F)cc3c(=O)c(C(=O)O)cn1c23
0

// next record CC(=O)Oc1ccccc1C(=O)O
6

---

Attribute: Hepatotoxicity (benign tumour)
- PARTICULARS: human

Solved cases below.
C[C@]12CC[C@H]3[C@@H](CCC4=CC(=O)CC[C@@]43C)[C@@H]1CC[C@@H]2O	3
COc1cccc2c1C(=O)c1c(O)c3c(c(O)c1C2=O)C[C@@](O)(C(=O)CO)C[C@@H]3O[C@H]1C[C@H](N)[C@H](O)[C@H](C)O1	0
COc1ccc2c(c1)c(CC(=O)OCC(=O)O)c(C)n2C(=O)c1ccc(Cl)cc1	0
O=NN(CCCl)C(=O)NCCCl	0

Which Hepatotoxicity (benign tumour) value is on record for O=C(O)COc1ccc(C(=O)c2cccs2)c(Cl)c1Cl ?
0

---

- PARTICULARS: human
READOUT_LABEL: Hepatotoxicity (choleostasis)

CCN(CC)CC(=O)Oc1ccc(NC(C)=O)cc1 [PROPACETAMOL]	0
CC[C@@]1(O)C(=O)OCc2c1cc1n(c2=O)Cc2cc3c(CN(C)C)c(O)ccc3nc2-1 [TOPOTECAN]	0

Which Hepatotoxicity (choleostasis) value is on record for CCCN(CCC)C(=O)Cc1c(-c2ccc(Cl)cc2)nc2ccc(Cl)cn12 [ALPIDEM] ?
0

// next record O=C1Nc2ccc(Cl)cc2[C@@](C#CC2CC2)(C(F)(F)F)O1 [EFAVIRENZ]
2

// next record Cc1noc(NS(=O)(=O)c2ccc(N)cc2)c1C [SULFISOXAZOLE]
2

---

- PARTICULARS: human, serum, 4383 h
READOUT_LABEL: Hepatotoxicity (chronic liver disease)
Answer with a bare number; do not write a unit.

Solved cases below.
CCCCCN(C)CCC(O)(P(=O)(O)O)P(=O)(O)O	0
CN1CCN(C2=Nc3cc(F)ccc3Cc3ccccc32)CC1	0
CC(=O)O[C@@]12CO[C@@H]1C[C@H](O)[C@@]1(C)C(=O)[C@H](O)C3=C(C)[C@@H](OC(=O)[C@H](O)[C@@H](NC(=O)OC(C)(C)C)c4ccccc4)C[C@@](O)([C@@H](OC(=O)c4ccccc4)[C@H]21)C3(C)C.O.O.O	0
CNNCc1ccc(C(=O)NC(C)C)cc1	0

# next molecule below
Which Hepatotoxicity (chronic liver disease) value is on record for NCC1CC(=O)N(Cc2ccccc2)C1 (stereo not drawn) ?
0

---

Attribute: Hepatotoxicity (chronic liver disease)
- PARTICULARS: human, serum, 4383 h
*1 amine or outer side, *2 acyl side, *3 side chain or, on linkers, in order; H or OH if unused. Where a SMILES comes first, the peptide text is derived from it. Bridges are numbered along the chain shown (N, C = ends). [ ]: non-standard residue; d: D form. The star is where a group is joined. X1 = O=C1C[C@@H](C(=O)[*:2])N([*:1])C[C@H]1CS[C@@H]1CN2CCC1CC2; NMePhe(4-NMe2) = CN[C@@H](Cc1ccc(N(C)C)cc1)C(=O)O; Picolinoyl(3-OH) = O=C(c1ncccc1O)*; Phg = N[C@H](C(=O)O)c1ccccc1; dAbu = CC[C@@H](N)C(=O)O
Answer with a bare number; do not write a unit.

Solved cases below.
O=C1c2c(O)ccc(O)c2C(=O)c2c(NCCNCCO)ccc(NCCNCCO)c21 [MITOXANTRONE]	0
CCn1cc(C(=O)O)c(=O)c2cc(F)c(N3CCN(C)CC3)cc21 [PEFLOXACIN]	0
CC1(C)S[C@@H]2[C@H](NC(=O)[C@H](N)c3ccc(O)cc3)C(=O)N2[C@H]1C(=O)O [AMOXICILLIN]	1

Which Hepatotoxicity (chronic liver disease) value is on record for CCN(CC)CCS(=O)(=O)[C@@H]1CCN2C(=O)c3coc(n3)CC(=O)C[C@H](O)/C=C(C)/C=C/CNC(=O)/C=C/[C@@H](C)[C@@H](C(C)C)OC(=O)[C@@H]12.CC[C@H]1NC(=O)[C@@H](NC(=O)c2ncccc2O)[C@@H](C)OC(=O)[C@H](c2ccccc2)NC(=O)[C@@H]2CC(=O)[C@H](CS[C@@H]3CN4CCC3CC4)CN2C(=O)[C@H](Cc2ccc(N(C)C)cc2)N(C)C(=O)[C@@H]2CCCN2C1=O [QUINUPRISTIN/DALFOPRISTIN] ({Picolinoyl(3-OH)}-T[dAbu]P[NMePhe(4-NMe2)][X1][Phg]; ester 1-C) ?
0

// next record CN1Cc2c(N)cccc2C(c2ccccc2)C1 (stereo not given) [NOMIFENSINE]
0

---

- PARTICULARS: human, serum, 4383 h
READOUT_LABEL: Hepatotoxicity (chronic liver disease)
Answer with a bare number; do not write a unit.

Solved cases below.
C[C@@](O)(/C=C/[C@H]1CC=CC(=O)O1)[C@@H](C[C@@H](O)\C=C/C=C\C=C\CO)OP(=O)(O)O	0
Cn1cnc([N+](=O)[O-])c1Sc1ncnc2nc[nH]c12	3
Cc1cc2c(C(C)C)c(O)c(O)c(C=O)c2c(O)c1-c1c(C)cc2c(C(C)C)c(O)c(O)c(C=O)c2c1O	0

# next molecule below
Which Hepatotoxicity (chronic liver disease) value is on record for CC1(C)S[C@@H]2[C@H](NC(=O)[C@H](NC(=O)N3CCN(S(C)(=O)=O)C3=O)c3ccccc3)C(=O)N2[C@H]1C(=O)O ?
0

---

- PARTICULARS: human, serum
Attribute: Hepatotoxicity (moderate)
Answer with a bare number; do not write a unit.

Solved cases below.
CN(C)C(=O)CCCOC(=O)C(C)(C)Oc1ccc(Cl)cc1 [CLOFIBRIDE]	1
CCCCC(C)(C)[C@H](O)/C=C/[C@H]1[C@H](C)CC(=O)[C@@H]1C/C=C\CCCC(=O)O	1
Cc1oc(=O)oc1CN1CCN(c2cc3c(cc2F)c(=O)c(C(=O)O)c2n3C(C)S2)CC1 (centres undefined)	25
CCOc1cc(CC(=O)N[C@@H](CC(C)C)c2ccccc2N2CCCCC2)ccc1C(=O)O [REPAGLINIDE]	1

Which Hepatotoxicity (moderate) value is on record for NC[C@H]1O[C@H](O[C@H]2[C@H](O)[C@@H](O[C@H]3O[C@H](CO)[C@@H](O)[C@H](N)[C@H]3O)[C@H](N)C[C@@H]2N)[C@H](N)C[C@@H]1O ?
12

// next record c1ccc2c(CCC3CCNCC3)c[nH]c2c1
1

---

- PARTICULARS: human
Attribute: Hepatotoxicity (cytolytic)
Answer with a bare number; do not write a unit.

Solved cases below.
C[C@H]1O[C@H](O[C@H]2[C@H](O)[C@@H](O)[C@@H](O[C@H]3[C@H](O)[C@@H](O)C(O)O[C@@H]3CO)O[C@@H]2CO)[C@H](O)[C@@H](O)[C@@H]1N[C@H]1C=C(CO)[C@@H](O)[C@H](O)[C@H]1O (stereo not given in full)	6
O=c1ccc2ccccc2o1	11
COc1ccc(C(=O)N2CCN(c3ccc4c(c3)CCC(=O)N4)CC2)cc1OC	0
CC(C)(O/N=C(\C(=O)N[C@@H]1C(=O)N2C(C(=O)[O-])=C(C[n+]3ccccc3)CS[C@H]12)c1csc(N)n1)C(=O)O	0
Nc1ccc(S(N)(=O)=O)cc1 [SULFANILAMIDE]	5
O=C(NCN1CCOCC1)c1cnccn1 [MORINAMIDE]	2
NN [HYDRAZINE]	1
CC(C)Cc1ccc(C(C)C(=O)O)cc1 (stereo not given)	14
O=C(O)COC(=O)Cc1ccccc1Nc1c(Cl)cccc1Cl	2
CCN1C(=O)NC(c2ccccc2)C1=O (stereo not given)	0

Which Hepatotoxicity (cytolytic) value is on record for O=C(NCCN1CCC(n2c(=O)[nH]c3cc(Cl)ccc32)CC1)c1ccc(F)cc1 [HALOPEMIDE] ?
0

// next record CC1CCCC(C)N1CCCC(O)(c1ccccc1)c1ccccn1 (stereo not given)
0

// next record NCc1ccccc1CC(=O)N[C@@H]1C(=O)N2C(C(=O)O)=C(CSc3nnnn3CC(=O)O)CS[C@H]12 [CEFORANIDE]
2

// next record COC(=O)C1=C(C#N)NC(C)=C(C(=O)OC(C)C)C1c1cccc([N+](=O)[O-])c1 (stereo not given)
0

// next record CO[C@H](C(=O)[C@@H](O)[C@@H](C)O)[C@@H]1Cc2cc3cc(O[C@H]4C[C@@H](O[C@H]5C[C@@H](O)[C@H](O)[C@@H](C)O5)[C@H](O)[C@@H](C)O4)c(C)c(O)c3c(O)c2C(=O)[C@H]1O[C@H]1C[C@@H](O[C@H]2C[C@@H](O[C@H]3C[C@](C)(O)[C@H](O)[C@@H](C)O3)[C@@H](O)[C@@H](C)O2)[C@H](O)[C@@H](C)O1
6

// next record CC(=O)NCCOC(=O)C(Oc1cccc(C(F)(F)F)c1)c1ccc(Cl)cc1 (stereo not given) [HALOFENATE]
0

// next record CCOC(=O)n1ccn(C)c1=S
5

// next record FC(F)(F)C(Cl)Br (stereo not given)
31
